# Test system: RXF 393 renal
# test-name: NCI tumour cell line growth inhibition, 48 h
I'd be grateful if you could share measured TGI for these entries.

q: Value lookup for TGI; key = CC(C)C(Sc1nc(-c2ccccc2)c(-c2ccccc2)[nH]1)C(=O)NN (stereo unspecified)
a: > 100 µM

q: Value lookup for TGI; key = Oc1ccc(Cc2nccc3cc(O)c(O)cc23)cc1O
a: > 100 µM

q: Value lookup for TGI; key = C1CSC(=[N+]2CC[N+](=C3SCCS3)CC2)S1
a: > 100 µM

q: Value lookup for TGI; key = CN(C)CCNC(=O)c1cccc2[nH]c(-c3cccnc3)nc12
a: 33.8 µM

q: Value lookup for TGI; key = Cc1ccc(C2=C(C#N)C(=O)N3CCN=C3S2)cc1
a: > 100 µM

q: Value lookup for TGI; key = N#Cc1cc(-c2nc3c(F)cccc3s2)ccc1N
a: > 100 µM

q: Value lookup for TGI; key = Cc1ccc2c(c1)CC1(Cc3c(C)cccc3C1=O)C2=O (stereo unspecified)
a: > 100 µM

q: Value lookup for TGI; key = C[C@]12C[C@@H](c3ccccc3)Nc3ccccc3N1C(c1ccccc1)=NO2
a: > 100 µM

q: Value lookup for TGI; key = Cc1c(Cl)c(S(N)(=O)=O)cc2c1NC=NS2(=O)=O
a: > 100 µM

q: Value lookup for TGI; key = CCN(C(C)=O)c1cnc(/C=N/NC(N)=S)c2ccccc12
a: > 100 µM

q: Value lookup for TGI; key = C=C1C(=O)O[C@H]2[C@H]1CCC(/C=N/c1ncc(Br)cc1N)=C\CC[C@@]1(C)O[C@@H]21
a: 2.9 µM

---

# System: RXF 393 renal
# test-name: NCI tumour cell line growth inhibition, 48 h; in the data active = GI50 below about 0.43 µM; inactive = the rest
Outcome (select one): active, inactive

q: # outcome recorded in this test, key = CCCCCCCCCCCCOC1C(C(COC2OC(C3COC(C)(C)O3)C3OC(C)(C)OC23)NC(=O)NS(=O)(=O)c2ccccc2)OC2OC(C)(C)OC21 (configuration not stated)
a: inactive

q: # outcome recorded in this test, key = CC(C)COCC(CN(Cc1ccccc1)c1ccccc1)N1CCCC1 (configuration not stated)
a: inactive

q: # outcome recorded in this test, key = N#CC1=C(N)Oc2c(sc3c(Br)cccc23)C1c1ccc(Br)cc1 (configuration not stated)
a: inactive

q: # outcome recorded in this test, key = O=P(CCCCP(=O)(c1ccccc1)c1ccccc1)(c1ccccc1)c1ccccc1.[Cl][Sn]([Cl])([c]1ccccc1)[c]1ccccc1
a: inactive

q: # outcome recorded in this test, key = COc1cc(NC(=O)CSc2nc3ccc(C)cc3c(=O)n2Cc2ccccc2)cc(OC)c1OC
a: inactive

q: # outcome recorded in this test, key = O=C1C=CC[C@H](/C=C/c2ccccc2)O1
a: inactive

q: # outcome recorded in this test, key = Cc1cc(NCc2cc(Nc3ccnc4cc(Cl)ccc34)ccc2F)nc(N2CCN(C)CC2)n1
a: inactive

q: # outcome recorded in this test, key = CN(C)CC1C(=O)O[C@H]2[C@H]1CC/C(COC(=O)c1cc3ccccc3[nH]1)=C\CC[C@@]1(C)O[C@@H]21 (some centres not stated)
a: inactive

q: # outcome recorded in this test, key = CC[C@@]1(OC(=O)CN)C(=O)OCc2c1cc1n(c2=O)Cc2cc3c(N)cccc3nc2-1
a: active

q: # outcome recorded in this test, key = NC1=C(c2nc(-c3ccccc3)cs2)C(c2ccc(Br)cc2)c2c(c3ccccc3oc2=O)O1 (configuration not stated)
a: inactive

q: # outcome recorded in this test, key = COc1cc(/C=C/C(=O)c2c(C)nc3ccccc3c2/C=C/c2ccc(C)cc2)cc(OC)c1OC
a: inactive

q: # outcome recorded in this test, key = COc1ccc(NC(=O)COCCOCCNC[C@@H]2C(=O)O[C@H]3[C@H]2CC/C(COC(=O)OC/C2=C/CC[C@@]4(C)O[C@H]4[C@H]4OC(=O)[C@@H](CN(C)C)[C@@H]4CC2)=C\CC[C@@]2(C)O[C@@H]32)c(O)c1C(N)=O
a: inactive

---

# Tested on: UO-31 renal
# test-name: NCI tumour cell line growth inhibition, 48 h
measured-property: TGI

q: Value lookup for TGI; key = OC1[C@H](O)CN(OCc2ccccc2)C[C@@H]1O (stereo not given in full)
a: > 100 µM

q: Value lookup for TGI; key = O=C(c1ccccc1)C(Br)C(Br)c1cccc([N+](=O)[O-])c1 (stereo not given)
a: 3.14 µM

q: Value lookup for TGI; key = COc1ccc2c(c1)Oc1cc(O)ccc1[C@@H]2c1ccccc1C(=O)NC(C)c1ccccc1 (stereo not given in full)
a: 34.1 µM

q: Value lookup for TGI; key = COc1cccc(-c2nc3ccccc3c(=O)[nH]2)c1OC
a: > 100 µM

q: Value lookup for TGI; key = CCN(CC)c1c(-c2c(N(CC)CC)c(OC(C)=O)c3sccn3c2=O)c(=O)n2ccsc2c1OC(C)=O
a: > 100 µM

---

# System: SK-MEL-5 melanoma
# test-name: NCI tumour cell line growth inhibition, 48 h
I'd be grateful if you could share measured TGI for these entries.
All answers are understood in µM, so give the number only.

q: Query the reported TGI for SK-MEL-5 melanoma; item: Cc1cc(Cc2cc(C)cc(C(C)(C)C)c2O)c(O)c(Cc2cc(C)cc(C(C)(C)C)c2O)c1
a: 2.62

q: Query the reported TGI for SK-MEL-5 melanoma; item: O=C(c1ccccc1)[C@@H]1C[C@H](Sc2ccccc2)c2cc(Cl)ccc2N1
a: 26.9

q: Query the reported TGI for SK-MEL-5 melanoma; item: O=P1(c2ccccc2)C(c2ccccc2)=CC=C1c1ccccc1
a: 28.4

q: Query the reported TGI for SK-MEL-5 melanoma; item: C=C1C(=O)O[C@H]2[C@H](OC(C)=O)[C@@H](C)CCC/C(C)=C/CC[C@@]3(C)O[C@@H]3C[C@@H]12
a: 15.5

q: Query the reported TGI for SK-MEL-5 melanoma; item: CC(C)(CN1CCCCC1)C(=O)/C=C/c1ccc(Cl)cc1
a: 15.1

---

I'd be grateful if you could share measured TGI for these entries.
# Test system: SF-295 CNS
# test-name: NCI tumour cell line growth inhibition, 48 h

q: Value lookup for TGI; key = O=C(c1ccccc1)N1OCCC1Nc1ccc(Br)cc1 (stereo unspecified)
a: > 10 µM

q: Value lookup for TGI; key = C[C@]12CCC(=O)C(O)=C1CC[C@@H]1C2CC[C@]2(C)Nc3c(cnn3-c3ccccc3)CC12 (stereo partly specified)
a: > 100 µM

q: Value lookup for TGI; key = CCCCCCCCCCC(C(O)c1ccccc1)N1CCCCC1 (stereo unspecified)
a: 3.23 µM

q: Value lookup for TGI; key = C=CC[C@@]1([C@H](C=C)COCc2ccc(OC)cc2)CC[C@]2(C)OC(C)(C)[C@@H](c3ccccc3)N2C1=S
a: > 100 µM

q: Value lookup for TGI; key = Nc1ccc(S(=O)(=O)Nc2ccc(Nc3c4ccccc4nc4ccccc34)cc2)cc1
a: 1.03 µM

q: Value lookup for TGI; key = O=C1C2C=CC(C2)C(c2ccc(O)cc2)N1O (stereo unspecified)
a: > 100 µM

---

# Test system: KM12 colon
# test-name: NCI tumour cell line growth inhibition, 48 h
I'd be grateful if you could share measured TGI for these entries.

q: Value lookup for TGI; key = CC1(C)C/C(=N/O)c2c(nc3ccc4ccccc4c3c2-c2ccc(Cl)cc2)C1
a: > 100 µM

q: Value lookup for TGI; key = Nc1nc2n[nH]nc2c(=O)[nH]1
a: > 100 µM

q: Value lookup for TGI; key = C/C=C1/CCC2c3[nH]c4ccccc4c3CCN2C1 (stereo unspecified)
a: > 100 µM

q: Value lookup for TGI; key = C/C=C(\C)C(=O)OC1C(C)=C2C(C1OC(=O)CCCC)C(C)(OC(C)=O)CC(OC(=O)CCCC)C1(O)C2OC(=O)C1(C)O (stereo unspecified)
a: > 42.5 µM

q: Value lookup for TGI; key = COCn1cnc2c(=O)n(-c3ccc(OC)cc3)c(=S)n(-c3ccc(OC)cc3)c21
a: > 100 µM

q: Value lookup for TGI; key = S=C1CSc2c(ccc3ccccc23)N1
a: > 100 µM

---

# Tested on: OVCAR-5 ovarian
# test-name: NCI tumour cell line growth inhibition, 48 h; in the data active = GI50 below about 0.43 µM; inactive = the rest
Outcome (select one): active, inactive

q: # outcome recorded in this test, key = COc1cc2c(cc1OCCCCCOc1ccc(-n3c(C)nc4ccccc4c3=O)cc1)N=C[C@@H]1CCCN1C2=O
a: active

q: # outcome recorded in this test, key = NC1=C(c2nc(-c3ccccc3)cs2)C(c2ccc(Br)cc2)c2c(c3ccccc3oc2=O)O1 (stereo not given)
a: inactive

q: # outcome recorded in this test, key = CN(C)CC1C(=O)O[C@H]2[C@H]1CC/C(COC(=O)c1cc3ccccc3[nH]1)=C\CC[C@@]1(C)O[C@@H]21 (stereo not given in full)
a: inactive

q: # outcome recorded in this test, key = Oc1ccccc1CNCC12CC3CC(CC(C3)C1)C2
a: inactive

q: # outcome recorded in this test, key = CCCCCCCCCCCCOC1C(C(COC2OC(C3COC(C)(C)O3)C3OC(C)(C)OC23)NC(=O)NS(=O)(=O)c2ccccc2)OC2OC(C)(C)OC21 (stereo not given)
a: inactive

q: # outcome recorded in this test, key = NCCN.NCCN.O=C([O-])CCl.O=C([O-])CCl.[Co+3].[O-][Cl+3]([O-])([O-])[O-]
a: inactive

q: # outcome recorded in this test, key = Oc1ccccc1C=Nc1nc(SCc2ccccc2)nc2[nH]ncc12
a: inactive

q: # outcome recorded in this test, key = CCN1C(=O)N(c2ccccc2)C2NC(=S)N(/N=C/C=C/c3ccccc3)C21 (stereo not given)
a: inactive

q: # outcome recorded in this test, key = N#CC1=C(N)Oc2c(sc3c(Br)cccc23)C1c1ccc(Br)cc1 (stereo not given)
a: inactive

q: # outcome recorded in this test, key = COc1cc(/C=N/NC(=O)c2cnn3c2NC(c2ccccc2)C3)ccc1Oc1ccccc1 (stereo not given)
a: inactive

q: # outcome recorded in this test, key = COc1ccc(/C(=N\O)c2cc(C)c(OC)c(C)c2)cc1O
a: active

q: # outcome recorded in this test, key = O=c1[nH]c(=O)c2cc(C3CC(O)C(CO)O3)ccc2[nH]1 (stereo not given)
a: inactive

q: # outcome recorded in this test, key = COc1ccc(-n2cc(-c3cc(OC)c(OC)c(OC)c3)nc2SCc2ccccc2)cc1OC
a: inactive

q: # outcome recorded in this test, key = C=C(C)[C@@H]1CC[C@]2(C)[C@H](CC=C3[C@@H]4[C@@H](C)[C@H](C)CC[C@]4(C(N)=O)CC[C@]32C)[C@@]1(C)CCC#N
a: inactive

q: # outcome recorded in this test, key = CCCCCCCCCCC(C(O)c1ccccc1)N1CCCCC1 (stereo not given)
a: inactive
